Test system: 873145-292-R-J1-PDC complex spheroid viability
Protocol summary: Anticancer human tumor 873145-292-R-J1-PDC patient-derived renal clear cell carcinoma cell line growth inhibition [POLQ]
Condition parameters: second compound 1 µM; first compound 1 µM; hits give low values

Compound	Endpoint unit	viability, T/C
CCCS(=O)(=O)Nc1ccc(F)c(C(=O)c2c[nH]c3ncc(-c4ccc(Cl)cc4)cc23)c1F + Cc1cccc(N(C)C(=O)C2C(O)CCN2c2nc(C)cc(C(F)(F)F)c2C#N)c1	%	106
COc1cccc2c1C(=O)c1c(O)c3c(c(O)c1C2=O)CC(O)(C(=O)CO)CC3OC1CC(N)C(O)C(C)O1 (stereo not given) + Nc1ccc(C#CCN(C(=O)Cc2ncc(C(F)(F)F)cc2C(F)(F)F)c2ccc(F)cc2)nn1	%	86.2
CCCS(=O)(=O)Nc1ccc(F)c(C(=O)c2c[nH]c3ncc(-c4ccc(Cl)cc4)cc23)c1F + COC1C(OC(N)=O)C(O)C(Oc2ccc3c(O)c(NC(=O)c4ccc(O)c(CC=C(C)C)c4)c(=O)oc3c2C)OC1(C)C	%	107
CC(C)n1c(=O)n(C)c2cnc3cc(F)c(-c4ccc(OCCCN5CCCCC5)nc4)cc3c21 + Cc1cccc(N(C)C(=O)C2C(O)CCN2c2nc(C)cc(C(F)(F)F)c2C#N)c1	%	91.8
CCc1c2c(nc3ccc(O)cc13)-c1cc3c(c(=O)n1C2)COC(=O)[C@]3(O)CC + COC1C(OC(N)=O)C(O)C(Oc2ccc3c(O)c(NC(=O)c4ccc(O)c(CC=C(C)C)c4)c(=O)oc3c2C)OC1(C)C	%	28.7
COc1cccc(OCCCN)c1-c1cc(Nc2cnc(C#N)cn2)n[nH]1 + COC1C(OC(N)=O)C(O)C(Oc2ccc3c(O)c(NC(=O)c4ccc(O)c(CC=C(C)C)c4)c(=O)oc3c2C)OC1(C)C	%	72.9
C=CC(=O)N1CCN(c2nc(=O)n(-c3c(C)ccnc3C(C)C)c3nc(-c4c(O)cccc4F)c(F)cc23)C(C)C1 (stereo not given) + Nc1ccc(C#CCN(C(=O)Cc2ncc(C(F)(F)F)cc2C(F)(F)F)c2ccc(F)cc2)nn1	%	129
C=CCn1c(=O)c2cnc(Nc3ccc(N4CCN(C)CC4)cc3)nc2n1-c1cccc(C(C)(C)O)n1 + COC1C(OC(N)=O)C(O)C(Oc2ccc3c(O)c(NC(=O)c4ccc(O)c(CC=C(C)C)c4)c(=O)oc3c2C)OC1(C)C	%	63.1
COc1cc2cc(C(=O)CCC(=O)O)sc2cc1OC + Cc1cccc(N(C)C(=O)C2C(O)CCN2c2nc(C)cc(C(F)(F)F)c2C#N)c1	%	100
CCc1cc2c(N3CCc4c(cc(Cn5ccnc5)cc4-c4cn(C)nc4C(F)(F)F)C3=O)cc(C)nc2c(OC)n1 + Cc1cccc(N(C)C(=O)C2C(O)CCN2c2nc(C)cc(C(F)(F)F)c2C#N)c1	%	79.4

----------
Tested on: 873145-292-R-J1-PDC complex spheroid viability
Protocol summary: Anticancer human tumor 873145-292-R-J1-PDC cell line growth inhibition [POLQ];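 also: luminescence signal used as surrogate for viable cell content; spheroids exposed to compounds for 7 days before viability readout; 100% = DMSO vehicle control viability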
Condition parameters: second compound 3.16 µM; first compound 3.16 µM; hits give low values
Outcome measure: viability, T/C (%)

Molecule	Target or test system	Outcome measure	Value
COc1cccc2c1C(=O)c1c(O)c3c(c(O)c1C2=O)CC(O)(C(=O)CO)CC3OC1CC(N)C(O)C(C)O1 (stereo not given) + Cc1cccc(N(C)C(=O)C2C(O)CCN2c2nc(C)cc(C(F)(F)F)c2C#N)c1	873145-292-R-J1-PDC complex spheroid viability	viability, T/C	2.19
C#Cc1c(F)ccc2cc(O)cc(-c3ncc4c(N5CC6CCC(C5)N6)nc(OCC56CCCN5CC(F)C6)nc4c3F)c12 (stereo not given) + COC1C(OC(N)=O)C(O)C(Oc2ccc3c(O)c(NC(=O)c4ccc(O)c(CC=C(C)C)c4)c(=O)oc3c2C)OC1(C)C	873145-292-R-J1-PDC complex spheroid viability	viability, T/C	86.4
CCc1cc2c(N3CCc4c(cc(Cn5ccnc5)cc4-c4cn(C)nc4C(F)(F)F)C3=O)cc(C)nc2c(OC)n1 + COC1C(OC(N)=O)C(O)C(Oc2ccc3c(O)c(NC(=O)c4ccc(O)c(CC=C(C)C)c4)c(=O)oc3c2C)OC1(C)C	873145-292-R-J1-PDC complex spheroid viability	viability, T/C	77.5
CC(C)n1c(=O)n(C)c2cnc3cc(F)c(-c4ccc(OCCCN5CCCCC5)nc4)cc3c21 + Nc1ccc(C#CCN(C(=O)Cc2ncc(C(F)(F)F)cc2C(F)(F)F)c2ccc(F)cc2)nn1	873145-292-R-J1-PDC complex spheroid viability	viability, T/C	101
O=C(Nc1ccc(O)c(NS(=O)(=O)c2ccc(F)cc2)c1)c1ccc(-c2ccccc2)cc1 + COC1C(OC(N)=O)C(O)C(Oc2ccc3c(O)c(NC(=O)c4ccc(O)c(CC=C(C)C)c4)c(=O)oc3c2C)OC1(C)C	873145-292-R-J1-PDC complex spheroid viability	viability, T/C	99.2
